Data provenance is PubChem BioAssay (NCI).

# Test system: MDA-MB-231 breast
# Test: NCI tumour cell line growth inhibition, 48 h; in the data active = GI50 below about 0.43 µM; inactive = the rest
Outcomes: active, inactive

{"Smiles structure": "COc1cc2ncnc(-n3ncc4cc(NC(=O)Nc5ccc(Cl)c(Cl)c5)ccc43)c2cc1OC", "Subject of test": "MDA-MB-231 breast", "Class name": "inactive"}
{"Smiles structure": "Cc1ccc2nc(-c3ccc(OCC(=O)N=Nc4c(O)[nH]c5ccccc45)cc3)[nH]c2c1", "Subject of test": "MDA-MB-231 breast", "Class name": "inactive"}
{"Smiles structure": "O=C(/C=C/c1ccc(C(F)(F)F)cc1)Nc1ccc(C=C2c3ccccc3C(=O)c3ccccc32)cc1", "Subject of test": "MDA-MB-231 breast", "Class name": "inactive"}
{"Smiles structure": "O=C(Nc1ccc(F)cc1F)c1cc(Cl)ccc1O", "Subject of test": "MDA-MB-231 breast", "Class name": "inactive"}
{"Smiles structure": "COC(=O)C12CC(NC(=O)c3csc([C@@H](C[C@H](C(C)C)N(C)C(=O)[C@@H](NC(=O)[C@H]4CCCCN4C)C4CC4)OC(C)=O)n3)(C1)C2", "Subject of test": "MDA-MB-231 breast", "Class name": "active"}
{"Smiles structure": "C1=C/COCc2cc(ccc2OCCN2CCCC2)Nc2nccc(n2)-c2ccc(o2)COC/1", "Subject of test": "MDA-MB-231 breast", "Class name": "inactive"}
{"Smiles structure": "CC(C)c1nc(N(C)S(C)(=O)=O)nc(-c2ccc(F)cc2)c1/C=C/[C@@H](O)C[C@@H](O)CC(=O)O", "Subject of test": "MDA-MB-231 breast", "Class name": "inactive"}
{"Smiles structure": "CCN1CCN(c2cc(C)nc(N(CCCNc3ccnc4cc(Cl)ccc34)Cc3ccc4c(c3)OCO4)n2)CC1", "Subject of test": "MDA-MB-231 breast", "Class name": "inactive"}
{"Smiles structure": "COc1ccc(NC(=O)/C=C(C)/C=C/C=C(C)/C=C/C2=C(C)CCCC2(C)C)cc1", "Subject of test": "MDA-MB-231 breast", "Class name": "inactive"}

###

# Test system: T-47D breast
# Test: NCI tumour cell line growth inhibition, 48 h; in the data active = GI50 below about 0.43 µM; inactive = the rest
Outcomes: active, inactive

{"Compound": "CCN1CCN(c2cc(C)nc(N(CCCNc3ccnc4cc(Cl)ccc34)Cc3ccc4c(c3)OCO4)n2)CC1", "Class name": "inactive"}
{"Compound": "CC[C@@]1(OC(=O)CN)C(=O)OCc2c1cc1n(c2=O)Cc2c-1nc1cc3c(cc1c2CCl)OCO3", "Class name": "active"}
{"Compound": "O=C(Nc1ccc(-n2ccc3c(NC(=O)c4ccccc4)ncnc32)cc1)c1cccc(C(F)(F)F)c1", "Class name": "inactive"}
{"Compound": "O=C1C2=C(C(=O)c3cnccc31)C1C=CC2CC1 (stereo not given)", "Class name": "active"}
{"Compound": "CC1CN(S(=O)(=O)c2oc(-c3ccc(Cl)cc3)nc2C#N)CC(C)O1 (stereo not given)", "Class name": "inactive"}
{"Compound": "CC1=C2C(=CC(C)(C)[C@@H]2O)C(=O)[C@](C)(O)C12CC2", "Class name": "active"}
{"Compound": "COc1cc2ncnc(-n3ncc4cc(NC(=O)Nc5ccc(Cl)c(Cl)c5)ccc43)c2cc1OC", "Class name": "inactive"}
{"Compound": "CCOc1ccc2c(c1)C(=O)c1c-2n(CCCBr)c(=O)c2cc([N+](=O)[O-])ccc12", "Class name": "inactive"}
{"Compound": "Cc1cc(C)c2c(n1)sc1c(N)ncnc12", "Class name": "inactive"}
{"Compound": "CC(C)c1nc(N(C)S(C)(=O)=O)nc(-c2ccc(F)cc2)c1/C=C/[C@@H](O)C[C@@H](O)CC(=O)O", "Class name": "inactive"}
{"Compound": "NS(=O)(=O)c1ccc(N=Nc2c(O)[nH]c3ccc(C(=O)NCc4ccncc4)cc23)cc1", "Class name": "inactive"}
{"Compound": "Oc1c(Cl)cc(Cl)c2ccc(Cn3cc(-c4cc(C(F)(F)F)cc(C(F)(F)F)c4)nn3)nc12", "Class name": "inactive"}
{"Compound": "CN(C)c1ccc(/C=C2\\N=C(c3ccccc3)N(c3cc(C(F)(F)F)ccc3Cl)C2=O)cc1", "Class name": "inactive"}
{"Compound": "C[C@@H]1O[C@@H](O[C@H]2CC[C@]3(C=O)[C@H]4CC[C@]5(C)[C@@H](c6ccc(=O)oc6)CC[C@]5(O)[C@@H]4CC[C@]3(O)C2)[C@H](O)[C@H](O)[C@H]1O[C@@H]1O[C@H](CO)[C@@H](O)[C@H](O)[C@H]1O", "Class name": "active"}
{"Compound": "CCN1CCN(Cc2ccc(NC(=O)Nc3nc4ccc(Oc5ccnc(C(=O)NC)c5)cc4s3)cc2C(F)(F)F)CC1", "Class name": "inactive"}

###

# Test system: HOP-18 NSCLC
# Test: NCI tumour cell line growth inhibition, 48 h

{"Compound": "COc1ccc2c(c1)OCCc1cn[nH]c1-2", "TGI": "> 100 µM"}
{"Compound": "CCCc1c(C(=O)OCC)[nH]c(-c2ccc(-c3[nH]c(C(=O)OCC)c(CCC)c3C(=O)OCC)s2)c1C(=O)OCC", "TGI": "> 100 µM"}
{"Compound": "O=C1C[C@@H]2[C@@H](CCC23CC3)N1", "TGI": "> 100 µM"}
{"Compound": "CCOc1ccc(/C(C=O)=C(\\Cl)c2ccc(OC)cc2)cc1", "TGI": "> 100 µM"}
{"Compound": "CC(C)OP(=O)(OC(C)C)C1=NN(c2ccc([N+](=O)[O-])cc2)C(P(=O)(OC(C)C)OC(C)C)=NN1c1ccc([N+](=O)[O-])cc1", "TGI": "> 100 µM"}
{"Compound": "CCSCN(C)c1nc(N(C)C)nc(N(C)C)n1", "TGI": "> 100 µM"}
{"Compound": "CCOC(=O)C(C)Sc1nnc(COc2ccccc2OC)n1-c1ccccc1 (configuration not stated)", "TGI": "> 100 µM"}
{"Compound": "CN(C)/C=N\\c1ccnc(=O)[nH]1", "TGI": "> 100 µM"}
{"Compound": "Clc1cccc(N2CCN(CCCN3CCc4c([nH]c5ccccc45)C3c3cccnc3)CC2)c1 (configuration not stated)", "TGI": "36 µM"}
{"Compound": "N/C(=N\\NS(=O)(=O)c1ccccc1)Oc1ccc(Br)cc1Br", "TGI": "> 100 µM"}
{"Compound": "CC1=C2C(=CC(C)(C)[C@@H]2O)C(=O)[C@](C)(O)C12CC2", "TGI": "0.0865 µM"}
{"Compound": "Cc1c2c(cc3c1C(=O)C(=O)C1=C3OC[C@@H]1C)C(C)(C)CCC2", "TGI": "32.3 µM"}

###

TGI overview
# System: COLO 205 colon
# Test: NCI tumour cell line growth inhibition, 48 h
Quantity kind: TGI

{"Compound": "COc1ccc(/C=C/C(=O)c2ccc(-n3cc(CN4CCN(c5cc6c(cc5F)c(=O)c(C(=O)O)cn6C5CC5)CC4)nn3)cc2)cc1OC", "Endpoint result": "> 100 µM"}
{"Compound": "Cc1cc(Nc2nc(C(=O)Nc3ccccc3)nc3ccccc23)n[nH]1", "Endpoint result": "> 25 µM"}
{"Compound": "O=C(O)/C=C\\C(=O)Nc1ccccn1", "Endpoint result": "> 100 µM"}
{"Compound": "Oc1c(Cl)cc(Cl)c2ccc(Cn3cc(-c4cc(C(F)(F)F)cc(C(F)(F)F)c4)nn3)nc12", "Endpoint result": "2.89 µM"}
{"Compound": "CO[C@H]1O[C@@H]2CO[C@@H](c3ccccc3)O[C@H]2[C@@H]2C/C=C\\CCC[C@@]12O", "Endpoint result": "33.6 µM"}
{"Compound": "CSc1nc(NC2OC(COC(C)=O)C(OC(C)=O)C(OC(C)=O)C2OC(C)=O)c(N=C(C)C(C)=O)c(=O)[nH]1 (centres undefined)", "Endpoint result": "> 100 µM"}
{"Compound": "Cc1c(OCc2ccccc2)c(=O)ccn1CCc1c[nH]c2ccccc12", "Endpoint result": "32.1 µM"}
{"Compound": "O=C1C(=O)N(c2ccc(Cl)cc2)C(=O)C(=O)C1c1nc2ccccc2s1", "Endpoint result": "> 100 µM"}
{"Compound": "COC(=O)c1c(CC(Cc2ccc3c(c2)CCCC3)C(=O)OC)ccc2c1CCCC2 (centres undefined)", "Endpoint result": "> 100 µM"}

###

# System: SNB-19 CNS
# Test: NCI tumour cell line growth inhibition, 48 h
Quantity kind: TGI

{"Compound": "COc1ccc(NC(=O)/C=C(C)/C=C/C=C(C)/C=C/C2=C(C)CCCC2(C)C)cc1", "Endpoint result": "28.1 µM"}
{"Compound": "O=C1OC(c2ccccc2)=N/C1=C\\c1ccc(Oc2ccc(Cl)c(Cl)c2)cc1", "Endpoint result": "> 100 µM"}
{"Compound": "Cc1ncc(C(=O)Nc2ccc(CN3CCN(C)CC3)c(C(F)(F)F)c2)cc1C#Cc1ccc(N)nc1", "Endpoint result": "5.06 µM"}
{"Compound": "COC(=O)C1=C(O)C(C(=O)OC)[C@]2(O)[C@@H](C(=O)OC)[C@H]1C[C@@H](c1ccccc1)[C@@H]2C(=O)OC (stereo partly specified)", "Endpoint result": "68.7 µM"}
{"Compound": "NCCCCC1NC(=O)C(CC(=O)O)NC(=O)CNC(=O)C(CCCN=C(N)N)NC(=O)C(N)CSSCC(C(=O)O)NC(=O)C(CC(=O)O)NC(=O)C2CCCN2C(=O)CNC1=O (stereo unspecified)", "Endpoint result": "> 100 µM"}
{"Compound": "Cc1ccc(S(=O)(=O)NC(=O)NC(CCCCN=C(N)N)C(=O)O)cc1 (stereo unspecified)", "Endpoint result": "> 100 µM"}
{"Compound": "Cc1ccnc2nc(N)ccc12", "Endpoint result": "> 100 µM"}
{"Compound": "C#CCNC(=O)NCCCCC(NC(=O)OCc1ccccc1)C(=O)OCc1ccccc1 (stereo unspecified)", "Endpoint result": "> 100 µM"}
{"Compound": "O=c1nc(-c2ccccc2)cc(CC(O)c2ccc(Cl)c(Cl)c2)[nH]1 (stereo unspecified)", "Endpoint result": "> 100 µM"}
{"Compound": "CC(=O)NC1=C(NCCCl)C(=O)c2ccccc2C1=O", "Endpoint result": "> 100 µM"}
{"Compound": "COC(=O)CCC12CCC(=O)C1[C@@H](C(=O)OC)C[C@H]2C(=O)OC (stereo partly specified)", "Endpoint result": "> 100 µM"}
